Target: T1, human TL1A extracellular domain with N-terminal HIS and FLAG tag (human) (UniProt O95150)
T1 sequence: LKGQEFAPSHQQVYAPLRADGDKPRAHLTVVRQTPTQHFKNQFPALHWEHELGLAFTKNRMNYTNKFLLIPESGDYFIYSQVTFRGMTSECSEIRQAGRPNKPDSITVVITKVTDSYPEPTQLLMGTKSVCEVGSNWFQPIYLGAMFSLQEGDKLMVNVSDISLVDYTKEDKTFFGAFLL
Assay: cell-based or functional assay
Endpoint label: Antibody IC50, TL1A induced caspase potency assay in TF-1 cells
Note to self: number, then unit, no commentary.

Would you please look over these solved cases?
[
  {
    "Binder": "320-443 (antibody, human IgG1, name in Kabat numbering, V domains shown, human IgG1, lambda) VH: QVQLVQSGAEVKKPGASVKVSCKASGYTFTSKDINWVRQAPGQGLEWMGWLNPNSGNTGYAQKFQGRVTMTADRSTSTAYMELSSLRSEDTAVYYCAREVPETAAFEYWGQGTLVTVSS VL: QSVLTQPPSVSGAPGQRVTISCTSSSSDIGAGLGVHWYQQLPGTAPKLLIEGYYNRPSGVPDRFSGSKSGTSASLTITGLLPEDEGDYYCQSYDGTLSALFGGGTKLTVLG",
    "Readout value": "0.06 µg/mL"
  },
  {
    "Binder": "320-302 (antibody, human IgG1, name in Kabat numbering, V domains shown, human IgG1, lambda) VH: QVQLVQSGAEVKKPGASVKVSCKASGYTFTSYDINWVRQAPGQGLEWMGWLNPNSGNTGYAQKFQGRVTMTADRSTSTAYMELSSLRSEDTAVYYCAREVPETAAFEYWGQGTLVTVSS VL: QSVLTQPPSVSGAPGQRVTISCTSSSSDIGAGLGVAWYQQLPGTAPKLLIEGYYNRPSGVPDRFSGSKSGTSASLTITGLLPEDEGDYYCQSYDGTLSALFGGGTKLTVLG",
    "Readout value": "0.01 µg/mL"
  }
]

Consider the record given below.
So what's the measured Antibody IC50, TL1A induced caspase potency assay in TF-1 cells for this one? 320-297 (antibody, human IgG1, name in Kabat numbering, V domains shown, human IgG1, lambda) VH: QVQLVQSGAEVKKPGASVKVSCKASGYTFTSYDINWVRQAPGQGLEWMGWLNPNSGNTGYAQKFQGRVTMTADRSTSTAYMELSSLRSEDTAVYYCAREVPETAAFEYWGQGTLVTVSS VL: QSVLTQPPSVSGAPGQRVTISCTSSSSDIGAGLGHHWYQQLPGTAPKLLIEGYYNRPSGVPDRFSGSKSGTSASLTITGLLPEDEGDYYCQSYDGTLSALFGGGTKLTVLG 0.005 µg/mL
